- Study System: melanocortin-4 receptor (Homo sapiens)
- Construct: expressed in transfected cells; host or cells: HEK293 cells (membrane preparations)
- Sequence (P32245 whole entry): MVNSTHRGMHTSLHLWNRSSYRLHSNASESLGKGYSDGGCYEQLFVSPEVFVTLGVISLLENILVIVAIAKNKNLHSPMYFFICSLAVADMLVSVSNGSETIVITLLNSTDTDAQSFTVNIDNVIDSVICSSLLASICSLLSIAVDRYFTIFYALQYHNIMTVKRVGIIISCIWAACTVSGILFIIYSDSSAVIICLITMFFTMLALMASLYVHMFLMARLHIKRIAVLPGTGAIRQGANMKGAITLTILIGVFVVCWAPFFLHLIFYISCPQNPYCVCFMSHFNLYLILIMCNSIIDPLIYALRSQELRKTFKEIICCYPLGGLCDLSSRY
- Protocol: Functional assay (cAMP fluorescence polarization, membrane based, agonistic activity)
- Format: biochemical
- Protocol Conditions: 2 h; read-out: % activation functional assay
Test Readout: Emax
The answer should read as a number with its unit following.

- CC(=O)OCCn1cc(-c2nc3ccc(C(=O)N(CCC(C)C)CCC(C)C)cn3c2CCCN2CCCC2)ccc1=O: 4%
- CC(C)CCN(CCC(C)C)C(=O)c1ccc2nc(-c3ccc(OCCO)nc3)c(CCCN3CCCC3)n2c1: 11%
- CC(C)CCN(CCC(C)C)C(=O)c1ccc2nc(-c3ccc(C#N)cc3)c(CN3CCC(N(C)C)CC3)n2c1: 0%
- COc1cccc(-c2nc3ccc(C(=O)N(CCC(C)C)CCC(C)C)cn3c2CCCN2CCOC[C@@H]2C)c1: 0%
- CC(=O)OCCn1cc(-c2nc3ccc(C(=O)N(CCC4CC4)CCC4CC4)cn3c2CCCN2CCCC2)ccc1=O: -24%

Emax measured on COc1cccc(-c2nc3ccc(C(=O)N(CCC(C)C)CCC(C)C)cn3c2CCCN2CCNCC2)c1 = 0%

Emax measured on CC(C)CCN(CCC(C)C)C(=O)c1ccc2nc(-c3ccc(C#N)cc3)c(CCCN(C)C)n2c1 = 0%

Emax measured on COc1ccc(-c2nc3ccc(C(=O)N(CCC(C)C)CCC(C)C)cn3c2CCCN)cc1 = 0%

Emax measured on COc1cccc(-c2nc3ccc(C(=O)N(CCC(C)C)CCC(C)C)cn3c2CCCN2CCOCC2)c1 = 0%
